Reference for the values: ChEMBL document CHEMBL3576866

Molecular target: Beta-lactamase (Klebsiella pneumoniae) (UniProt Q93LQ9)
Sequence (Q93LQ9 as listed by the source): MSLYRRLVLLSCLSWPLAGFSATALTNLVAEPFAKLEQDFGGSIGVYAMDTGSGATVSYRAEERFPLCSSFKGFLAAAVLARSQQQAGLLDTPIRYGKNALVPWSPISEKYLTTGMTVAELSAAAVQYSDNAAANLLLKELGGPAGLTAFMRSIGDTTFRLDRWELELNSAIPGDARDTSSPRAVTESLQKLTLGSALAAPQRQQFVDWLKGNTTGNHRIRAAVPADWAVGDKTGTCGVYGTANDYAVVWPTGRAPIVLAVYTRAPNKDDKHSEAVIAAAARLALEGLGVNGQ
Experiment: Inhibition of Klebsiella pneumoniae KP1004 KPC 2 carbapenemase assessed as minimum concentration required to reduce biapenem MIC from […] ug/ml to 1 ug/mL by broth microdilution method
EXPERIMENTAL_ENDPOINT: MEC (µg/mL)
Could you give me the number in µg/mL? Just the number is fine.

Example entries and their recorded answers appear below.
| COMPOUND | EXPERIMENTAL_ENDPOINT | REPORTED |
| --- | --- | --- |
| O=C(O)C[C@@H]1CC[C@H](NC(=O)Cc2cccs2)B(O)O1 | MEC | 0.02 |
| CC(=O)N[C@H]1CC[C@@H](CC(=O)O)OB1O | MEC | 0.3 |
| O=C(O)C[C@@H]1CC[C@H](NC(=O)Cc2ccncc2)B(O)O1 | MEC | 0.15 |

In: Name the recorded MEC of the item O=C(O)C[C@@H]1CC[C@H](NC(=O)c2ccccc2)B(O)O1 in your answer.
Out: 0.3

In: Name the recorded MEC of the item O=C(O)C[C@@H]1CC[C@H](NC(=O)C(O)c2ccccc2)B(O)O1 (stereo partly drawn) in your answer.
Out: 0.61

In: Name the recorded MEC of the item O=C(O)C[C@@H]1CC[C@H](NC(=O)Cc2cccnc2)B(O)O1 in your answer.
Out: 0.15

###

Test: AUC in human at 1 g administered as 3 hrs of infusion
Assay type: ADME, organism-based
Details: in vivo, iv
EXPERIMENTAL_ENDPOINT: AUC at 3 h (ng·h/mL)
Could you give me the number in ng·h/mL? Just the number is fine.

In: Name the recorded AUC at 3 h of the item O=C(O)C[C@@H]1CC[C@H](NC(=O)Cc2cccs2)B(O)O1 in your answer.
Out: 100000

###

Assay: AUC (0 to infinity) in rat at 1000 mg/kg, iv administered as 0.5 hrs infusion by HPLC-MS method
Assay type: ADME, organism-based
Design: dose 1000 mg/kg, route intravenous, time infinity
Conditions: in vivo
EXPERIMENTAL_ENDPOINT: AUC(0-inf) (µg·h/mL)
Could you give me the number in µg·h/mL? Just the number is fine.

In: Name the recorded AUC(0-inf) of the item O=C(O)C[C@@H]1CC[C@H](NC(=O)Cc2cccs2)B(O)O1 [VABORBACTAM] in your answer.
Out: 1040

###

Biological target: Prothrombin (Homo sapiens)
pIC50: −log10 of the molar value.
EXPERIMENTAL_ENDPOINT: pIC50

In: Look up Prothrombin (Homo sapiens) data: pIC50 of O=C(O)C[C@@H]1CC[C@H](NC(=O)Cc2cccs2)B(O)O1 [VABORBACTAM] , then report it.
Out: < 3.00

###

Assay: Volume of distribution in rat at 1000 mg/kg, iv administered as 0.5 hrs infusion by HPLC-MS method
Type: ADME, organism-based
Conditions: in vivo
EXPERIMENTAL_ENDPOINT: Vd (L/kg)
Could you give me the number in L/kg? Just the number is fine.

In: Name the recorded Vd of the item O=C(O)C[C@@H]1CC[C@H](NC(=O)Cc2cccs2)B(O)O1 in your answer.
Out: 0.55

###

Test system: Klebsiella pneumoniae
Test: Antibacterial activity against Klebsiella pneumoniae KP1004 expressing KPC2/TEM1/SHV11 by broth microdilution method
Assay type: functional
# Lookup of reported MIC keyed by entry

Example entries and their recorded answers appear below.
| COMPOUND | REPORTED |
| --- | --- |
| C[C@@H](O)[C@H]1C(=O)N2C(C(=O)[O-])=C(SC3Cn4cnc[n+]4C3)[C@H](C)[C@H]12 (some centres undefined) | 8 µg/mL |
| C[C@@H](O)[C@H]1C(=O)N2C(C(=O)O)=C(S[C@@H]3CN[C@H](C(=O)Nc4cccc(C(=O)O)c4)C3)[C@H](C)[C@H]12 | 32 µg/mL |
| C[C@@H](O)[C@H]1C(=O)N2C(C(=O)O)=C(S[C@@H]3CN[C@H](C(=O)N(C)C)C3)[C@H](C)[C@H]12 | 8 µg/mL |

In: Name the recorded MIC of the item C[C@@H](O)[C@H]1C(=O)N2C(C(=O)O)=C(SCCNC=N)C[C@H]12 [IMIPENEM ANHYDROUS] in your answer.
Out: 8 µg/mL
